Numbers sourced from patent US9725463B2.

tested on: IL-2 secretion by Jurkat T cells; assay: Inhibition of IL-2 secretion; format: cell-based; details: Homo sapiens; Jurkat T cells stimulated with PHA, 20 to 24 hours, IL-2 by ELISA
Experimental endpoint: IC50

Smiles entry	Experimental endpoint	Result
CCc1cc2c(cc1-c1cnc(NC(=O)c3c(F)cccc3F)cn1)OCC(=O)N2C	IC50	< 25 nM
Cc1cc2oc(=O)n(C)c2cc1-c1ccc(NC(=O)c2c(C)cccc2F)cc1	IC50	25 to 50 nM
Cc1c(-c2ccc(NC(=O)c3c(F)cccc3F)cc2)cnc2c1oc(=O)n2C	IC50	25 to 50 nM
CCc1c(-c2ccc(NC(=O)c3c(F)cccc3F)cc2)cnc2c1oc(=O)n2C	IC50	< 25 nM
CCc1cc2c(cc1-c1ccc(NC(=O)c3c(F)cccc3F)cc1)N(C)C(=O)CO2	IC50	25 to 50 nM
Cn1c(=O)oc2c(C3CC3)c(-c3ccc(NC(=O)c4c(F)cccc4Cl)cc3)ccc21	IC50	< 25 nM
CN1C(=O)COc2c1ccc(-c1cnc(NC(=O)c3c(F)cccc3F)cn1)c2C1CC1	IC50	50 to 100 nM
Cn1c(=O)oc2cc(C3CC3)c(-c3ccc(C(=O)Nc4c(F)cncc4F)cc3)cc21	IC50	< 25 nM
Cc1cc2oc(=O)n(C)c2cc1-c1ccc(NC(=O)c2c(F)cccc2Cl)cc1	IC50	25 to 50 nM
CCc1cc2c(cc1-c1ccc(C(=O)Nc3c(F)cncc3F)cc1)oc(=O)n2C	IC50	25 to 50 nM
Cc1cc2c(cc1-c1ccc(C(=O)Nc3c(F)cccc3F)s1)oc(=O)n2C	IC50	25 to 50 nM

---

test system: IL-2 secretion by Jurkat T cells; assay: Inhibition of IL-2 secretion; type: cell-based; conditions: Homo sapiens; Jurkat T cells stimulated with PHA, 20 to 24 hours, IL-2 by ELISA

Compound	System name	IC50
Cn1c(=O)oc2cc(C3CC3)c(-c3ccc(C(=O)Nc4c(F)cccc4F)s3)cc21 [Example 89]	IL-2 secretion by Jurkat T cells	< 25 nM
CN1C(=O)COc2c1ncc(-c1ccc(NC(=O)c3c(F)cccc3F)cc1)c2C1CC1 [Example 112]	IL-2 secretion by Jurkat T cells	25 to 50 nM
CCc1cc2oc(=O)n(C)c2cc1-c1ccc(C(=O)Nc2c(F)cncc2F)cc1 [Example 92]	IL-2 secretion by Jurkat T cells	< 25 nM
Cn1c(=O)oc2cc(-c3ccc(C(=O)Nc4c(F)cccc4F)s3)c(C3CC3)cc21 [Example 74]	IL-2 secretion by Jurkat T cells	50 to 100 nM
Cc1cc2oc(=O)n(CCC(F)(F)F)c2cc1-c1ccc(NC(=O)c2c(F)cccc2F)cc1 [Example 33]	IL-2 secretion by Jurkat T cells	100 to 500 nM
CCc1c(-c2ccc(NC(=O)c3c(F)cccc3F)cc2)ccc2c1oc(=O)n2C [Example 16]	IL-2 secretion by Jurkat T cells	25 to 50 nM
CCc1cc2oc(=O)n(C)c2cc1-c1ccc(NC(=O)c2c(F)cccc2F)nc1 [Example 82]	IL-2 secretion by Jurkat T cells	< 25 nM
CN1C(=O)COc2c1ccc(-c1ccc(NC(=O)c3c(F)cccc3F)cc1)c2C1CC1 [Example 107]	IL-2 secretion by Jurkat T cells	< 25 nM
Cn1c(=O)oc2cc(C3CC3)c(-c3ccc(NC(=O)c4c(F)cccc4F)nc3)cc21 [Example 83]	IL-2 secretion by Jurkat T cells	25 to 50 nM
CCc1nc2c(cc1-c1ccc(NC(=O)c3c(F)cccc3F)cc1)oc(=O)n2C [Example 37]	IL-2 secretion by Jurkat T cells	< 25 nM
Cc1cc2oc(=O)n(C(C)C)c2cc1-c1ccc(NC(=O)c2c(F)cccc2F)cc1 [Example 31]	IL-2 secretion by Jurkat T cells	< 25 nM
Cc1cc2oc(=O)n(CCF)c2cc1-c1ccc(NC(=O)c2c(F)cccc2F)cc1 [Example 30]	IL-2 secretion by Jurkat T cells	< 25 nM
CCc1cc2c(cc1-c1ccc(NC(=O)c3c(F)cccc3F)cc1)oc(=O)n2C [Example 43]	IL-2 secretion by Jurkat T cells	< 25 nM
CCc1cc2oc(=O)n(C)c2cc1-c1ccc(C(=O)Nc2c(F)cccc2F)s1 [Example 88]	IL-2 secretion by Jurkat T cells	< 25 nM
CN1C(=O)COc2cc(C3CC3)c(-c3ccc(NC(=O)c4c(F)cccc4F)cc3)cc21 [Example 131]	IL-2 secretion by Jurkat T cells	50 to 100 nM
Cc1cc2oc(=O)n(C)c2cc1-c1ccc(NCc2c(F)cccc2F)cc1 [Example 55]	IL-2 secretion by Jurkat T cells	< 25 nM
